# Test Protocol: Critical micelle concentration (CMC) by dye solubilization (Orange OT or DPH)
# Format: physicochemical
# Condition Context: determined by DPH (diphenylhexatriene) or Orange OT
Quantity Kind: CMC (mM)
Please give a number only; it is taken to be in mM.

Compound	Unit Of Measure	CMC
CCCCCCCCCCCCC(=O)NC(CO[C@@H]1O[C@H](CO)[C@@H](O[C@H]2O[C@H](CO)[C@@H](O)[C@H](O)[C@H]2O)[C@H](O)[C@H]1O)CO[C@@H]1O[C@H](CO)[C@@H](O[C@H]2O[C@H](CO)[C@@H](O)[C@H](O)[C@H]2O)[C@H](O)[C@H]1O [MPA5]	mM	1.7
O=C(CC1(C2CCCCC2)CCCCC1)NC(CO[C@@H]1O[C@H](CO)[C@@H](O)[C@H](O)[C@H]1O)CO[C@@H]1O[C@H](CO)[C@@H](O)[C@H](O)[C@H]1O [TPA 50]	mM	19.2

Please find the next compound below.
Looking for the measured CMC of CCCCCCC(CCCCCC)(CC(=O)NC(CO[C@@H]1O[C@H](CO)[C@@H](O)[C@H](O)[C@H]1O)CO[C@@H]1O[C@H](CO)[C@@H](O)[C@H](O)[C@H]1O)c1ccccc1 [TPA 36] , can you help?
0.56
